- Test system: CSNK2A2;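 also: KINOMEscan kinase panel screen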
- Study conditions: concentration: 1 μM, replicates: in singlicate; n = 1
%Inh below 50% gives n; %Inh at or above it gives y.

Here's what some known entries look like.
[[record]]
structure_notation = "Cc1cc(-c2ccnc(Nc3cccc(C#N)c3)n2)cc(C)c1O"
qualitative_label = "n"

[[record]]
structure_notation = "Cc1ccc(NC(=O)c2ccnc(N3CCCCC3)c2)cc1-c1ccc(C(=O)NCC2CC2)cc1"
qualitative_label = "n"

[[record]]
structure_notation = "CNc1nccc(-c2ccc3c(N)n[nH]c3c2)n1"
qualitative_label = "y"

[[record]]
structure_notation = "Cc1ccc(O)cc1Nc1ccnc2cc(-c3ccc(CN4CCCCC4)o3)ccc12"
qualitative_label = "n"

[[record]]
structure_notation = "N#Cc1cnc2cc(-c3cnc(CNCCN4CCOCC4)s3)ccc2c1Nc1ccc(Oc2ccccc2)cc1"
qualitative_label = "n"


In plain terms: is recorded %Inh at least 50% for CCNC(=O)/C=C/c1n[nH]c2cc(Sc3ccccc3C(=O)NC)ccc12 ?
n

In plain terms: is recorded %Inh at least 50% for Cc1nn2c(=O)cc(N3CCO[C@H](C)C3)nc2n1Cc1cccc(Cl)c1Cl ?
y

In plain terms: is recorded %Inh at least 50% for O=C(Nc1n[nH]c2nc(-c3cccc(O)c3)ccc12)C1CC1 ?
y

In plain terms: is recorded %Inh at least 50% for Cc1ccc(O)cc1Nc1ccnc2ccc(C(C)(C)C)cc12 ?
n

The reported numbers originate from paper PMC5540273.
